- target_or_system: T1, Cynomolgus monkey BCMA (cynomolgus monkey)
- T1 construct: Soluble analyte in SPR; also called cyBCMA; Cyno BCMA
- method_description: SPR, IgG immobilised, cyno BCMA analyte
Classify: t when Kd is strictly less than 1000 pM; f when Kd is not.

Before answering, review these 3 worked examples.
C01_Rd4_6nM_C20 (antibody, V domains shown, IgG) VH: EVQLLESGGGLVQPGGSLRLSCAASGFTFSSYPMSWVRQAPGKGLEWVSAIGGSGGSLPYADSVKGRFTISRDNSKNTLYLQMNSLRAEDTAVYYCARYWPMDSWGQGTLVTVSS VL: EIVLTQSPGTLSLSPGERATLSCRASQSVSPLYLAWYQQKPGQAPRLLIYDASSRAPGIPDRFSGSGSGTDFTLTISRLEPEDFAVYYCQQYSAFPLTFGQGTKVEIK ... f
C01_Rd4_6nM_C04 (antibody, V domains shown, IgG) VH: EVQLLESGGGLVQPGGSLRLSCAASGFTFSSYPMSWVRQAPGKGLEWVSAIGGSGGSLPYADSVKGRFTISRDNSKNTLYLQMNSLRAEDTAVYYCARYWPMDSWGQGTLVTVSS VL: EIVLTQSPGTLSLSPGERATLSCCSSQSVSSTYLAWYQQKPGQAPRLLIYDASSRAPGIPDRFSGSGSGTDFTLTISRLEPEDFAVYYCQQYSAFPLTFGQGTKVEIK ... f
COMBO_Rd4_6nM_C12 (antibody, V domains shown, IgG) VH: EVQLLESGGGLVQPGGSLRLSCAASGFTFSSYPMSWVRQAPGKGLEWVSAALGSGGSTYYADSVKGRFTISRDNSKNTLYLQMNSLRAEDTAVYYCARYWPMDSWGQGTLVTVS VL: EIVLTQSPGTLSLSPGERATLSCRASQSVSASYLAWYQQKPGQAPRLLMYDASIRATGIPDRFSGSGSGTDFTLTISRLEPEDFAVYYCQQYMSWPLTFGQGTKVEIK ... t

// query hey, is Kd for COMBO_Rd4_6nM_C10 (antibody, V domains shown, IgG) VH: EVQLLESGGGLVQPGGSLRLSCAASGFTFSSYPMSWVRQAPGKGLEWVSAIGGSGGSIHYADSVKGRFTISRDNSKNTLYLQMNSLRAEDTAVYYCARYWPMDSWGQGTLVTVSS VL: EIVLTQSPGTLSLSPGERATLSCRASQSVSSSYWGWYQQKPGQAPRLLMYDASIRATGIPDRFSGSGSGTDFTLTISRLEPEDFAVYYCQQYQCWPLTFGQGTKVEIK lower than 1000 pM or not?
// result t

// query I'd appreciate it if you could check whether A02_Rd4_6nM_C07 (antibody, V domains shown, IgG) VH: EVQLLESGGGLVQPGGSLRLSCAASGFTFSSYAMNWVRQAPGKGLEWVSAIGGSGGSLPYADSVKGRFTISRDNSKNTLYLQMNSLRAEDTAVYYCARYWPMDSWGQGTLVTVSS VL: EIVLTQSPGTLSLSPGERATLSCRASQSVSPYYLAWYQQKPGQAPRLLMYDASIRATGIPDRFSGSGSGTDFTLTISRLEPEDFAVYYCQQYERWPLTFGQGTKVEIK has Kd smaller than 1000 pM.
// result f

// query Strictly below 1000 pM: is that where Kd of COMBO_Rd4_6nM_C08 (antibody, V domains shown, IgG) VH: EVQLLESGGGLVQPGGSLRLSCAASGFTFSSYPMSWVRQAPGKGLEWVSAIGGSGTWTYYADSVKGRFTISRDNSKNTLYLQMNSLRAEDTAVYYCARYWPMDSWGQGTLVTVSS VL: EIVLTQSPGTLSLSPGERATLSCRASQSVSSSYLAWYQQKPGQAPRLLMYDASIRATGIPDRFSGSGSGTDFTLTISRLEPEDFAVYYCQQYQKWPLTFGQGTKVEIK sits?
// result t

// query I wonder whether A02_Rd4_6nM_C23 (antibody, V domains shown, IgG) VH: EVQLLESGGGLVQPGGSLRLSCAASGFTFSSYAMNWVRQAPGKGLEWVSAISDSGGSGWYADSVKGRFTISRDNSKNTLYLQMNSLRAEDTAVYYCARYWPMSLWGQGTLVTVSS VL: EIVLTQSPGTLSLSPGERATLSCRASQSVSVEYLAWYQQKPGQAPRLLMYDASIRATGIPDRFSGSGSGTDFTLTISRLEPEDFAVYYCQQYARWPLTFGQGTKVEIK has Kd below 1000 pM. Can you tell?
// result t

// query Lab log: compare recorded Kd with 1000 pM; is it strictly lower for C01_Rd4_6nM_C24 (antibody, V domains shown, IgG) VH: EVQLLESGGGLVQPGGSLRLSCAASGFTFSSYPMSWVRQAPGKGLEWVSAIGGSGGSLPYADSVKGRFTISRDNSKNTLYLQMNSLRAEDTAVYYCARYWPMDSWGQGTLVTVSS VL: EIVLTQSPGTLSLSPGERATLSCRASQSVSPEYLAWYQQKPGQAPRLLIYDASSRAPGIPDRFSGSGSGTDFTLTISRLEPEDFAVYYCQQYSVWPLTFGQGTKVEIK ?
// result t

// query Given the entry A02_Rd4_0.6nM_C26 (antibody, V domains shown, IgG) VH: EVQLLESGGGLVQPGGSLRLSCAASGFTFSSYAMNWVRQAPGKGLEWVSAILMSGGSTYYADSVKGRFTISRDNSKNTLYLQMNSLRAEDTAVYYCARYWPMSLWGQGTLVTVSS VL: EIVLTQSPGTLSLSPGERATLSCGPSQSVSSSYLAWYQQKPGQAPRLLMYDASIRATGIPDRFSGSGSGTDFTLTISRLEPEDFAVYYCQQYQSWPLTFGQGTKVEIK , would its reported Kd be below 1000 pM?
// result t
